Examples of compounds with documented EC50 follow.
# Tested on: human venous endothelial cells (HUVECs)
# experiment description: In vitro angiogenesis model (pseudotubule length of HUVECs on matrigel/collagen)
# Assay type: cell-based
# conditions used: Homo sapiens, HUVEC; in vitro

O=C(O)c1cc(-c2cc(C(=O)NCCOCCOCCOCCOCCNC(=O)c3cc(-c4ccc(F)c(C(=O)O)c4)nc4[nH]nc(-c5ccccc5)c34)c3c(-c4ccccc4)n[nH]c3n2)ccc1F [Compound 3] | < 1 nM

# input for lookup
Q) Indicate the recorded EC50 value for this compound: NC(=O)c1cc(-c2ccc(F)c(C(=O)O)c2)nc2[nH]nc(-c3cccc(C(=O)NCCCOCCOCCOCCCNC(=O)c4cccc(-c5n[nH]c6nc(-c7ccc(F)c(C(=O)O)c7)cc(C(N)=O)c56)c4)c3)c12 [Compound 6]
A) 3 nM

---

# System: human venous endothelial cells (HUVECs)
# experiment description: In vitro angiogenesis model (pseudotubule length of HUVECs on matrigel/collagen)
# Type: cell-based
# conditions used: Homo sapiens, HUVEC; in vitro
pEC50: −log10 of the molar value.
Examples of compounds with documented pEC50 follow.

O=C(O)c1cc(-c2cc(C(=O)NCCCOCCOCCOCCCNC(=O)c3cc(-c4ccc(F)c(C(=O)O)c4)nc4[nH]nc(-c5ccccc5)c34)c3c(-c4ccccc4)n[nH]c3n2)ccc1F [Compound 2] | > 9.00

Q) Return reported pEC50 for target or system human venous endothelial cells (HUVECs), item O=C(O)c1cc(-c2cc(C(=O)NCCCOCCOCCOCCOCCOCCCNC(=O)c3cc(-c4ccc(F)c(C(=O)O)c4)nc4[nH]nc(-c5ccccc5)c34)c3c(-c4ccccc4)n[nH]c3n2)ccc1F [Compound 5] .
A) > 9.00

Q) Return reported pEC50 for target or system human venous endothelial cells (HUVECs), item NC(=O)c1cc(-c2ccc(F)c(C(=O)O)c2)nc2[nH]nc(-c3ccc(C(=O)NCCCOCCOCCOCCCNC(=O)c4ccc(-c5n[nH]c6nc(-c7ccc(F)c(C(=O)O)c7)cc(C(N)=O)c56)cc4)cc3)c12 [Compound 8] .
A) > 7.00
